The reader will find reported zone of inhibition at 125000 µg/mL values listed item by item below.
Test system: Staphylococcus aureus
Assay: Antibacterial activity against Staphylococcus aureus at 125 mg/ml after 24 hrs by well diffusion assay
Assay type: functional
Settings: read-out: DIZ
Write the number in mm without appending the unit.

INSERT INTO assay_data (molecule, obs_value) VALUES
  ('CCC12C=CC(O1)C(C(=O)c1ccc(Br)cc1)C2c1ccccc1 (stereo unspecified)', 13),
  ('CCC12C=CC(O1)C(C(=O)c1ccccc1)C2c1ccc(C#N)cc1 (stereo unspecified)', 11),
  ('CCC12C=CC(O1)C(C(=O)c1ccccc1)C2c1cccc(OC)c1 (stereo unspecified)', 15),
  ('CCC12C=CC(O1)C(C(=O)c1ccccc1)C2c1ccccc1Cl (stereo unspecified)', 15),
  ('CCC12C=CC(O1)C(C(=O)c1ccccc1)C2c1ccc(F)cc1 (stereo unspecified)', 13);

Next molecule, zone of inhibition at 125000 µg/mL to be filled in.
Give zone of inhibition at 125000 µg/mL (Staphylococcus aureus) of the following molecule: CCC12C=CC(O1)C(C(=O)c1ccccc1)C2c1ccccc1F (stereo unspecified) 15

----------
System: Vibrio cholerae
Test: Antibacterial activity against Vibrio cholerae after 18 to 24 hrs by microdilution broth assay
Format: functional
observable: MIC (µg/mL)
Write the number in µg/mL without appending the unit.

Examples from the recorded data:
INSERT INTO measurements (molecule, observable, obs_value) VALUES
  ('CCC12C=CC(O1)C(C(=O)c1ccccc1)C2c1ccc(Br)cc1 (stereo unspecified)', 'MIC', 625),
  ('CCC12C=CC(O1)C(C(=O)c1ccccc1)C2c1ccc(OC)cc1 (stereo unspecified)', 'MIC', 625);

Recorded MIC for CCC12C=CC(O1)C(C(=O)c1ccccc1)C2c1ccc(F)cc1 (stereo unspecified) , please? 625

Next molecule: CCC12C=CC(O1)C(C(=O)c1ccccc1)C2c1ccccc1Br (stereo unspecified) 625

Next molecule: CCC12C=CC(O1)C(C(=O)c1ccccc1)C2c1ccccc1Cl (stereo unspecified) 625

Next molecule: CCC12C=CC(O1)C(C(=O)c1ccccc1)C2c1ccccc1 (stereo unspecified) 1250

Next molecule: CCC12C=CC(O1)C(C(=O)c1cccc(Br)c1)C2c1ccccc1 (stereo unspecified) 625

----------
The reader will find reported inhibition values listed item by item below.
System: Radical scavenging activity
Assay: Antioxidant activity assessed as DPPH radical scavenging activity after 30 mins
Type: functional
Parameters: concentration or dose not given beside the values
Write the number in % without appending the unit.

Examples from the recorded data:
INSERT INTO assay_data (compound, units_symbol, obs_value) VALUES
  ('CCC12C=CC(O1)C(C(=O)c1ccccc1)C2c1ccc(OC)cc1 (stereo not given)', '%', 15.1),
  ('CCC12C=CC(O1)C(C(=O)c1ccccc1)C2c1ccccc1Cl (stereo not given)', '%', 22.2),
  ('Cc1cc(C(C)(C)C)c(O)c(C(C)(C)C)c1', '%', 58.4),
  ('CCC12C=CC(O1)C(C(=O)c1ccccc1)C2c1cccc(OC)c1 (stereo not given)', '%', 33.4);

Give inhibition (Radical scavenging activity) of the following compound: CCC12C=CC(O1)C(C(=O)c1ccccc1)C2c1ccc([N+](=O)[O-])cc1 (stereo not given) 21.6

----------
Tested on: Staphylococcus aureus
Experiment: Antibacterial activity against Staphylococcus aureus at 125 mg/ml after 24 hrs by well diffusion assay
Type: functional
Details: read-out: DIZ
The reader will find reported zone of inhibition at 125000 µg/mL values listed item by item below.
Write the number in mm without appending the unit.

INSERT INTO assay_data (molecule, observable, units_symbol, obs_value) VALUES
  ('CCC12C=CC(O1)C(C(=O)c1ccccc1)C2c1ccc(OC)cc1 (stereo unspecified)', 'zone of inhibition at 125000 µg/mL', 'mm', 11),
  ('O=C(O)c1cn(C2CC2)c2cc(N3CCNCC3)c(F)cc2c1=O', 'zone of inhibition at 125000 µg/mL', 'mm', 16),
  ('CCC12C=CC(O1)C(C(=O)c1ccccc1)C2c1cccc(F)c1 (stereo unspecified)', 'zone of inhibition at 125000 µg/mL', 'mm', 14);

Recorded zone of inhibition at 125000 µg/mL for CCC12C=CC(O1)C(C(=O)c1ccccc1)C2c1cccc(Br)c1 (stereo unspecified) , please? 12

Next molecule: CCC12C=CC(O1)C(C(=O)c1ccccc1)C2c1ccccc1Br (stereo unspecified) 14

Next molecule: CCC12C=CC(O1)C(C(=O)c1ccccc1)C2c1ccc(Br)cc1 (stereo unspecified) 13

FYI, the data here is from ChEMBL document CHEMBL2390923.
